Measured values drawn from ChEMBL document CHEMBL4602617 for this set.

- testTarget: Serine/threonine-protein kinase PLK3 (Homo sapiens)
- Sequence (Q9H4B4 whole entry, the tested form may be a part): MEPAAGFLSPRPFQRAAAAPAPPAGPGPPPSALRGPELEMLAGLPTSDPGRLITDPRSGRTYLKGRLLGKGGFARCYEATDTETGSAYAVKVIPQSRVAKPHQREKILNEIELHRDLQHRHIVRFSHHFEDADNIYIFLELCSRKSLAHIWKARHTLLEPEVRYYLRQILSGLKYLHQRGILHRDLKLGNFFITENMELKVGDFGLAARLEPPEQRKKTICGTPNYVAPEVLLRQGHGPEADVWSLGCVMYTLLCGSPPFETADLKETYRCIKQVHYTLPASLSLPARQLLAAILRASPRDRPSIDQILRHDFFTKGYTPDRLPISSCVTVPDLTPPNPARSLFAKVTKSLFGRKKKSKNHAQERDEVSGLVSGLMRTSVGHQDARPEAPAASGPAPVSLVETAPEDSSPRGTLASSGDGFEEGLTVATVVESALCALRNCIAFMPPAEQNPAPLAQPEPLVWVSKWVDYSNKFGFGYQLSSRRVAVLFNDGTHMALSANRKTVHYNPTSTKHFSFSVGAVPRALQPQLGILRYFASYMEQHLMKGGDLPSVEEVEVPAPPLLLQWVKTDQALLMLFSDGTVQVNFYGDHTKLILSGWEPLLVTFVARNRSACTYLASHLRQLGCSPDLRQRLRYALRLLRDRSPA
- assayRemarks: Inhibition of recombinant human GST-tagged PLK3 catalytic domain (58 to 340 residues) expressed in baculovirus expression system using serine/threonine-16 peptide as substrate incubated for 60 mins in presence of ATP by Z'-LYTE assay
assayReadout: IC50

testsmiles=C[C@@H]1C[C@H]1C(=O)N1CCN(c2cnc(C#N)c(-c3cnn(C)c3)n2)C[C@H]1C assayreadout=IC50 result="> 100 µM"

---

- assayRemarks: Protein binding in rat plasma at 0.5 mg/kg, iv or 1 mg/kg, po
- Format: ADME, organism-based
- conditionNotes: read-out: PPB (converted)
assayReadout: fraction unbound

testsmiles=C[C@@H]1C[C@H]1C(=O)N1CCN(c2cnc(C#N)c(-c3cnn(C)c3)n2)C[C@H]1C result=0.152

---

- Species: Homo sapiens
- assayRemarks: Selectivity index, ratio IC50 for inhibition of recombinant human N-terminal His6-tagged full-length p120gamma expressed in Sf21 insect cells to ratio IC50 for inhibition of recombinant human full-length N-terminal GST-tagged p110delta/untagged full-length p85alpha expressed in baculovirus infected Sf21 cells
Each item that follows carries a reported Ratio IC50.
assayReadout: Ratio IC50

testsmiles=C[C@@H]1CN(c2ncc(C#N)c(-c3cnn(C)c3)n2)CCN1C(=O)C1CC1 assayreadout="Ratio IC50" result=764
testsmiles=C[C@@H]1CN(c2nc(-c3cnn(C)c3)cnc2C#N)CCN1C(=O)C1CC1 assayreadout="Ratio IC50" result="> 67"
testsmiles=N#Cc1cnc(-c2ccnc3[nH]ccc23)nc1N1C[C@@H]2C[C@H]1CN2c1cccc(F)c1 assayreadout="Ratio IC50" result=225
testsmiles=C[C@@H]1CN(c2nc(-c3cnn(C)c3)ncc2C#N)CCN1c1cccc(F)c1 assayreadout="Ratio IC50" result="> 76"
testsmiles=C[C@@H]1CN(c2nc(-c3cnn(C)c3)ncc2C#N)CCN1C(=O)C1CCC1 assayreadout="Ratio IC50" result="> 33"
testsmiles=N#Cc1cnc(-c2cnc3[nH]ccc3c2)nc1N1C[C@@H]2C[C@H]1CN2c1cccc(F)c1 assayreadout="Ratio IC50" result="> 14"
testsmiles=Cn1cc(-c2ncc(C#N)c(N3C[C@@H]4C[C@H]3CN4C(=O)C3CC3)n2)cn1 assayreadout="Ratio IC50" result=78
testsmiles=N#Cc1cnc(-c2cccnc2)nc1N1C[C@@H]2C[C@H]1CN2c1cccc(F)c1 assayreadout="Ratio IC50" result="> 27"
testsmiles=Cn1cc(-c2ncc(C#N)c(N3CCN(c4cccc(F)c4)CC3)n2)cn1 assayreadout="Ratio IC50" result="> 8"
testsmiles=C[C@@H]1CN(c2nc(-c3cnn(C)c3)ncc2C#N)CCN1C(=O)C1CC1 assayreadout="Ratio IC50" result="> 116"
testsmiles=N#Cc1cnc(N2Cc3cn[nH]c3C2)nc1N1C[C@@H]2C[C@H]1CN2c1cccc(F)c1 assayreadout="Ratio IC50" result="> 146"
testsmiles=C[C@@H]1CN(c2cnc(C#N)c(-c3cnn(C)c3)n2)CCN1C(=O)C1CC1 assayreadout="Ratio IC50" result="> 384"
testsmiles=CCC(=O)N1CCN(c2nc(-c3cnn(C)c3)ncc2C#N)C[C@H]1C assayreadout="Ratio IC50" result="> 48"
testsmiles=CCNC(=O)N1C[C@@H]2C[C@H]1CN2c1nc(-c2cnn(C)c2)ncc1C#N assayreadout="Ratio IC50" result=6

---

- testTarget: Ribosomal protein S6 kinase alpha-2 (Homo sapiens, UniProt Q15349)
- Sequence (Q15349 whole entry): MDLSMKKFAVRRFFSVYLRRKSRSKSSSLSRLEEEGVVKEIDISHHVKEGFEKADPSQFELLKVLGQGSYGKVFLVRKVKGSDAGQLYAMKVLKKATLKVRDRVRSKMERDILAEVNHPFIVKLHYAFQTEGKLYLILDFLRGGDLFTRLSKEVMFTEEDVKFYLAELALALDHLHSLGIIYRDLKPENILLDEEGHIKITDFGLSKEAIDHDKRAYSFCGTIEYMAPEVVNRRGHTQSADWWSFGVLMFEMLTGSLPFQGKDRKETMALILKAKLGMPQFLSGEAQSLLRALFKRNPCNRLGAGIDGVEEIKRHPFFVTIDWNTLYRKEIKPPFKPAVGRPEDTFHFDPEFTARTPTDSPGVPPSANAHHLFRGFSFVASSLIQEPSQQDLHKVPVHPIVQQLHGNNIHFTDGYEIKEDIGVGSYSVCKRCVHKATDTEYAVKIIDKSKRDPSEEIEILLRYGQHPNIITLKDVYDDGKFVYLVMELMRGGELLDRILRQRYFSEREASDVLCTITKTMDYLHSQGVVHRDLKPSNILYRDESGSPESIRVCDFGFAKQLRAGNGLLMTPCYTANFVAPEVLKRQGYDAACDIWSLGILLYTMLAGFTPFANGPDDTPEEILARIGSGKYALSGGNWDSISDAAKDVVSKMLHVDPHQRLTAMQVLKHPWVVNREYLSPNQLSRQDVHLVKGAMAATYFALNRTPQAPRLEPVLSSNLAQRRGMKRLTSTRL
- assayRemarks: Inhibition of recombinant full length human GST-tagged RPS6KA2 expressed in insect expression system using Ser/Thr 06 peptide as substrate incubated for 60 mins in presence of ATP by Z'-LYTE assay
pIC50: −log10 of the molar value.
assayReadout: pIC50

testsmiles=C[C@@H]1C[C@H]1C(=O)N1CCN(c2cnc(C#N)c(-c3cnn(C)c3)n2)C[C@H]1C testtarget="Ribosomal protein S6 kinase alpha-2 (Homo sapiens, UniProt Q15349)" assayreadout=pIC50 result="< 4.00"

---

- testTarget: Phosphatidylinositol 4,5-bisphosphate 3-kinase catalytic subunit delta isoform (Homo sapiens, UniProt O00329)
- Sequence (O00329 whole entry): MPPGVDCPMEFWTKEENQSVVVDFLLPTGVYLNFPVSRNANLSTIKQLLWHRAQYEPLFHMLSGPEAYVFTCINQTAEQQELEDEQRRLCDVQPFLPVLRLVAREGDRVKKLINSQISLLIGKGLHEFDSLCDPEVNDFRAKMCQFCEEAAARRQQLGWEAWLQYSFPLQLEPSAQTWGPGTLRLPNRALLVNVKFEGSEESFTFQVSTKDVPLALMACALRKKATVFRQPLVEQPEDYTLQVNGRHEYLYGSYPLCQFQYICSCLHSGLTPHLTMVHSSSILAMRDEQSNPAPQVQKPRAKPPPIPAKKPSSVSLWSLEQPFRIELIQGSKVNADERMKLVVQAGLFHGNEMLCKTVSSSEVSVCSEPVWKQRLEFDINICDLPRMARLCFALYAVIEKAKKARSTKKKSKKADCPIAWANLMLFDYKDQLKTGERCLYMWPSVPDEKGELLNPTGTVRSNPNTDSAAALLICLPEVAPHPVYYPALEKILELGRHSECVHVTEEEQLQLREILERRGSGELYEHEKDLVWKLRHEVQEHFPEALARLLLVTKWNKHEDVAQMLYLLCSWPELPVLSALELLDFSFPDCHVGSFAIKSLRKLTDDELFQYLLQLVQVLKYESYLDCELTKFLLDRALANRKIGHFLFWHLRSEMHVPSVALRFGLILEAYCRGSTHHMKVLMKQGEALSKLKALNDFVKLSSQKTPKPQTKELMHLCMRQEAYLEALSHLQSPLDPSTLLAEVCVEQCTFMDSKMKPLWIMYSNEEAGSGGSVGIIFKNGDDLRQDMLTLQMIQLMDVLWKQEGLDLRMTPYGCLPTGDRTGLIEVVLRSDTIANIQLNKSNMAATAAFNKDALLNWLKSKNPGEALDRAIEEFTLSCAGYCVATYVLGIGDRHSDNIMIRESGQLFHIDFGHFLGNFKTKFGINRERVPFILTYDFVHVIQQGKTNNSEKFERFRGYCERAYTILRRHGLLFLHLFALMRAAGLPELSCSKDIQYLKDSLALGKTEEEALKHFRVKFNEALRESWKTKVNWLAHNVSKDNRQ
- assayRemarks: Inhibition of PI3K delta (unknown origin) by Adapta assay
assayReadout: IC50

testsmiles=C[C@@H]1C[C@H]1C(=O)N1CCN(c2cnc(C#N)c(-c3cnn(C)c3)n2)C[C@H]1C result="< 10 nM"

---

- testTarget: Rhodopsin kinase GRK7 (Homo sapiens, UniProt Q8WTQ7)
- Sequence (Q8WTQ7 whole entry): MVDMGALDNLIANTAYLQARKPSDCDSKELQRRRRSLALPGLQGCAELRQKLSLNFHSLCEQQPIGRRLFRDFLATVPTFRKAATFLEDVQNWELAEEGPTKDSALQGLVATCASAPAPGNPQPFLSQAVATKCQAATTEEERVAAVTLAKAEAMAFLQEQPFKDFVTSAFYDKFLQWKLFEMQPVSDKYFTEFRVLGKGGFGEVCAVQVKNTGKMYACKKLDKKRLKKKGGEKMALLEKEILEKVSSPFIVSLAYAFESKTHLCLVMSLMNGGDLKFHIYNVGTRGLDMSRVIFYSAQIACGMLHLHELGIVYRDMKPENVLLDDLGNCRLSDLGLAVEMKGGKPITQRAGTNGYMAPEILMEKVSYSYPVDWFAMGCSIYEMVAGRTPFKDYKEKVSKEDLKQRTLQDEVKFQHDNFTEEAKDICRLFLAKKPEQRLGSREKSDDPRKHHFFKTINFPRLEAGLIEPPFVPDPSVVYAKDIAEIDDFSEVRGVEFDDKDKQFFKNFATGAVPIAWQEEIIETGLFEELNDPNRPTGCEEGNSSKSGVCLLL
- assayRemarks: Inhibition of recombinant full length human GST-tagged GRK7 expressed in baculovirus expression system using serine/threonine-16 peptide as substrate incubated for 60 mins in presence of ATP by Z'-LYTE assay
pIC50: −log10 of the molar value.
assayReadout: pIC50

testsmiles=C[C@@H]1C[C@H]1C(=O)N1CCN(c2cnc(C#N)c(-c3cnn(C)c3)n2)C[C@H]1C assayreadout=pIC50 result="< 4.00"

---

- testTarget: Glycogen synthase kinase-3 alpha (Homo sapiens, UniProt P49840)
- Sequence (P49840 whole entry): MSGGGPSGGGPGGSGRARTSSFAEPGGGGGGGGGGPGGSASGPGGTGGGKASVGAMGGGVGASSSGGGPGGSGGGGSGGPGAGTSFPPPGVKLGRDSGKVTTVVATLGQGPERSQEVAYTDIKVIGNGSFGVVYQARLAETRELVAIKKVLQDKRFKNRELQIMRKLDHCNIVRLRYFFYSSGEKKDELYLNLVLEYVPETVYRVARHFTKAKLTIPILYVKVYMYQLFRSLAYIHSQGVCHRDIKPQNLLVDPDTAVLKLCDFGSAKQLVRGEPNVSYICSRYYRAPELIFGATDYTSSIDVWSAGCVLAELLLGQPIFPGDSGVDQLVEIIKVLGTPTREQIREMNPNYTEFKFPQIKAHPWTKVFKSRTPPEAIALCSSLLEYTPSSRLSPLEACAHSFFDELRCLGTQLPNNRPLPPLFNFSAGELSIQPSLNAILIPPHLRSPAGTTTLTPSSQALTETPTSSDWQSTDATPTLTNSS
- assayRemarks: Inhibition of recombinant full length GST-tagged human GSK3alpha expressed in baculovirus expression system using Ser/Thr 09 peptide as substrate after 1 hr in presence of ATP by Z'LYTE assay
pIC50: −log10 of the molar value.
assayReadout: pIC50

testsmiles=C[C@@H]1C[C@H]1C(=O)N1CCN(c2cnc(C#N)c(-c3cnn(C)c3)n2)C[C@H]1C testtarget="Glycogen synthase kinase-3 alpha (Homo sapiens, UniProt P49840)" quantitativereadout=4.58

---

Each item that follows carries a reported CLint scaled.
- assayRemarks: Clearance in human liver microsomes
- Format: ADME, Microsome
- conditionNotes: read-out: CLH
assayReadout: CLint scaled

compound=C[C@@H]1CN(c2ncc(C#N)c(-c3cnn(C)c3)n2)CCN1C(=O)C1CC1 result="< 16 mL/min/kg"
compound=Cn1cc(-c2ncc(C#N)c(N3C[C@@H]4C[C@H]3CN4CC3CC3)n2)cn1 result="< 16 mL/min/kg"
compound=C[C@@H]1CN(c2nc(-c3cnn(C)c3)ncc2C#N)CCN1C(=O)C1CC1 result="21 mL/min/kg"
compound=C[C@@H]1C[C@H]1C(=O)N1CCN(c2cnc(C#N)c(-c3cnn(C)c3)n2)C[C@H]1C result="< 16 mL/min/kg"
compound=Cn1cc(-c2ncc(C#N)c(N3CCN(c4cccc(F)c4)C(C)(C)C3)n2)cn1 result="91 mL/min/kg"
compound=C[C@@H]1CN(c2nc(-c3cnn(C)c3)cnc2C#N)CCN1C(=O)C1CC1 result="50 mL/min/kg"
compound=C[C@@H]1C[C@H]1C(=O)N1CCN(c2nc(-c3cnn(C)c3)ncc2C#N)C[C@H]1C result="< 16 mL/min/kg"
compound="CC1CC1C(=O)N1CCN(c2nc(-c3cnn(C)c3)ncc2C#N)C[C@H]1C (mixture of isomers)" result="< 16 mL/min/kg"
compound=CCC(=O)N1CCN(c2nc(-c3cnn(C)c3)ncc2C#N)C[C@H]1C result="< 16 mL/min/kg"
compound=C[C@@H]1CN(c2cnc(C#N)c(-c3cnn(C)c3)n2)CCN1C(=O)C1CC1 result="< 16 mL/min/kg"
compound=Cn1cc(-c2ncc(C#N)c(N3C[C@@H]4C[C@H]3CN4S(=O)(=O)C3CC3)n2)cn1 result="< 16 mL/min/kg"
compound=Cn1cc(-c2ncc(C#N)c(N3C[C@@H]4C[C@H]3CN4C(=O)C3CC3)n2)cn1 result="< 16 mL/min/kg"
compound=C[C@@H]1CN(c2nc(-c3cnn(C)c3)ncc2C#N)CCN1C(=O)C1(C)CC1 result="< 16 mL/min/kg"
compound=Cn1cc(-c2ncc(C#N)c(N3CC4CCC(C3)N4c3cccc(F)c3)n2)cn1 result="62 mL/min/kg"
compound=C[C@@H]1CN(c2nc(-c3cnn(C)c3)ncc2C#N)CCN1C(=O)C1CCC1 result="< 16 mL/min/kg"
compound=Cn1cc(-c2ncc(C#N)c(N3C[C@@H]4C[C@H]3CN4c3cccc(F)c3)n2)cn1 result="76 mL/min/kg"
